Reported values of pKd for individual entries
- tested-on: T1, cynomolgus serum albumin (cynomolgus)
- T1 construct: also called CSA; Cyano
- experiment: SPR, CSA on chip, pH 5.5
As a rule, pKd stands for the negative log10 of the concentration, concentration in M.

Take a look at these entries with their results.
binder	reported-property	quantitative-readout
BA11-cys-maleimide-peg-fluorescein (VNAR, C-terminal cysteine joined to maleimide-peg-fluorescein, also called BA11-cys-mal-Fl) VNAR: TRVDQSPSSLSASVGDRVTITCVLTDTSYPLYSTYWYRKNPGSSNKEQISISGRYSESVNKGTKSFTLTISSLQPEDSATYYCRAMSTNIWTGDGAGTKVEIK	pKd	8.09
BA11-oxime-fluorescein (VNAR, C-terminal aminoxy joined by oxime to benzaldehyde-peg-fluorescein) VNAR: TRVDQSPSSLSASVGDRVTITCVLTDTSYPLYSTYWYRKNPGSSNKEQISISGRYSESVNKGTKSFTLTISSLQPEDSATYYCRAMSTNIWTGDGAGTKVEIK	pKd	8.26
BA11 C-terminal thiol derivative (VNAR, C-terminal thiol from cysteamine cleavage of the intein fusion, also called BA11-SH) VNAR: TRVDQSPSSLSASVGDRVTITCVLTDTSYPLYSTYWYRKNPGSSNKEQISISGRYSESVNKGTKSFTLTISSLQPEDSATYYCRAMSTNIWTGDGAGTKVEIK	pKd	8.17
BA11-S-maleimide-peg-fluorescein (VNAR, C-terminal thiol joined to maleimide-peg-fluorescein, also called BA11-S-mal-Fl) VNAR: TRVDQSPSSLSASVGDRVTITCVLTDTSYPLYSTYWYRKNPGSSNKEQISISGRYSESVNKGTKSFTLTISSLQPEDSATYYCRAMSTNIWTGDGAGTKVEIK	pKd	8.15

Turning to the following binder.
Tell me pKd reported for BA11 humanised VNAR (VNAR) VNAR: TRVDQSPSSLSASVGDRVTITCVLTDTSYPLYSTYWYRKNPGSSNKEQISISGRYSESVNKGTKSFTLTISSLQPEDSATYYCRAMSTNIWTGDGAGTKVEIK 8.96
